Kindly state SPOT peptide array binding signal intensity for each of the entries shown.
- Tested System: AgAbp1
- Assay Protocol: SPOT peptide array binding signal intensity (averaged, normalized) (arbitrary units (background-subtracted, floor 0; scale differs between SH3 domains)); higher = stronger binding of the SH3 domain to the peptide
# print the numeric value only

Please give the measured SPOT peptide array binding signal intensity for this binder: KKAPPPVVKPKPRNF
4680

Please give the measured SPOT peptide array binding signal intensity for this binder: IFLRISINFPLNYPN
76

Please give the measured SPOT peptide array binding signal intensity for this binder: RVRKTHVPASKRPSG
81.5

Please give the measured SPOT peptide array binding signal intensity for this binder: KTRLRPAFIQQLWSS
12
